- tested-on: T1, CRBN, Q96SW2
- T1 chain: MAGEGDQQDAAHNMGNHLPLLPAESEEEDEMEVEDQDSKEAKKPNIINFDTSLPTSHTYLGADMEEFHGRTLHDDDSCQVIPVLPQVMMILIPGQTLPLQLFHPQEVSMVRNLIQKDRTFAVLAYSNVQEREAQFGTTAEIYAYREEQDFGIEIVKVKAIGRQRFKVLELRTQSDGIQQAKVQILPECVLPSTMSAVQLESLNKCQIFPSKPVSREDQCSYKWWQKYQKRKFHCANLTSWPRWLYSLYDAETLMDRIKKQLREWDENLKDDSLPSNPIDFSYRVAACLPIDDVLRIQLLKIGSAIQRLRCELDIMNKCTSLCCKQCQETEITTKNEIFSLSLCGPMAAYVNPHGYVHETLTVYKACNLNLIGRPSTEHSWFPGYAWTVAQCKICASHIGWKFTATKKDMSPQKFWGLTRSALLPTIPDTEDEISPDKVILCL
- experimental-details: log2 fold change of degron read counts, EGFP-low vs EGFP+ sorted cells (limma voom), compound-induced degradation; higher = more compound-induced degradation of the degron-EGFP fusion; degrons are variants of IKZF1/3 zinc finger 2; compound dose not given here;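 further: pooled lentiviral library of zinc finger degron-EGFP fusions in mCherry-positive Jurkat cells, FACS-sorted after compound exposure, with degron abundance counted by next-generation sequencing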
- settings: Jurkat; 18 h; compound: compound 19 (5-tert-butyl-thalidomide)
In all, about 8,300 sequences were measured (“log2 fold change of degron read counts, EGFP-low vs EGFP+ sorted cells (limma voom), compound-induced degradation”: median about -1.1, highest 2% from about 3.2 on). Many of the other results were omitted from the sample, so the highest values are more common in it than they were.
# log2 fold change of degron read counts values compiled below
metric: log2 fold change of degron read counts

seq-text	metric	assay-result
FDCNICGAIFTQKGNLLRHIKL [46F_47D_49N_50I_52G_53A_54I_55F_67L_, Q9UKT9]	log2 fold change of degron read counts	-1.43
LTCNQCGFLCTQKGNLLRHIKL [46L_47T_49N_50Q_52G_53F_54L_55C_67L_, Q9UKT9]	log2 fold change of degron read counts	-2.17
FLCEICGHQFTQKGNLLRHIKL [46F_47L_49E_50I_52G_53H_54Q_55F_67L_, Q9UKT9]	log2 fold change of degron read counts	-3.24
FSCDICGAAFTQKGNLLRHIKL [46F_47S_49D_50I_52G_53A_54A_55F_67L_, Q9UKT9]	log2 fold change of degron read counts	2.34
LECPICGFPCTQKGNLLRHIKL [46L_47E_49P_50I_52G_53F_54P_55C_67L_, Q9UKT9]	log2 fold change of degron read counts	-1.29
FLCDQCGAYFTQKGNLLRHIKL [46F_47L_49D_50Q_52G_53A_54Y_55F_67L_, Q9UKT9]	log2 fold change of degron read counts	-3.04
FVCPQCGAFFTQKGNLLRHIKL [46F_47V_49P_50Q_52G_53A_54F_55F_67L_, Q9UKT9]	log2 fold change of degron read counts	-1.99
